Values compiled from paper doi:10.1101/2021.08.24.457465.

Molecular target: T1, ToPif1 (wild type) (Thermus oshimai, UniProt K7RJ88 64-507)
T1 sequence: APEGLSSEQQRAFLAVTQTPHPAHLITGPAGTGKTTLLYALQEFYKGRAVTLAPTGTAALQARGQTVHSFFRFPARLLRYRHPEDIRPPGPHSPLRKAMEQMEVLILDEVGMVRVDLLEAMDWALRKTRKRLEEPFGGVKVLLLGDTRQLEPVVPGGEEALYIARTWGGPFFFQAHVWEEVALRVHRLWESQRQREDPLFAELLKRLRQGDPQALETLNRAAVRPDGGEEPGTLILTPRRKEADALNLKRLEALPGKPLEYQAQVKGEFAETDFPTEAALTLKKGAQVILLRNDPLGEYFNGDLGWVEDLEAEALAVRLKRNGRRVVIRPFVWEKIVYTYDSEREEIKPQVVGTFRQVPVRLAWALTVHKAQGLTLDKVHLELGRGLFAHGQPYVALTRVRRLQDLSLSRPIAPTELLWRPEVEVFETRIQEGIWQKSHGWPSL
Experiment: fluorescence anisotropy
Items are presented alongside their recorded Kd.
State the answer as a number, implicitly in nM.

binder	Kd / nM
AGGGTGGGTGGGTGGG (structured_DNA) [G4CEB]	30.3

For the binder TTTTTTTTTTTT (ssDNA) [T12] , give its reported Kd.
29.1
